These measurements were taken from paper PMC4006906.

# measured-target: H5VN04 trimeric HA (recombinant hemagglutinin) (influenza A virus (H5VN04), UniProt Q6DQ33)
# test-name: SPR
property-measured: pKd
Quick note: pKd means taking -log10 of the concentration in moles per liter.

**Query** // query pKd value for entry A66 germline CDR-H2 variant (IIPIFGTA) scFv (scFv, V domains shown) VH: QVQLVQSGAEVKKPGSSVKVSCKASGGPFSMTAFTWLRQAPGQGLEWMGGIIPIFGTAKYAQKFQGRVTITADESTNTANMELTSLKSEDTAVYYCARTLSSYQPNNDAFAIWGQGTMVTVSS VL: EIVLTQSPATLSLSPGERATLSCRASQSVSSYLAWYQQKPGQAPRLLIYDASNRATGIPARFSGSGSGTDFTLTISRLEPEDFAVYFCQQYGSSPQFGQGTRLEIK
**Result** 8.38

**Query** Note, next up: A66 CDR-H2 variant ISPIFGTA (germline CDR-H2 with Ser52 restored) scFv (scFv, V domains shown) VH: QVQLVQSGAEVKKPGSSVKVSCKASGGPFSMTAFTWLRQAPGQGLEWMGGISPIFGTAKYAQKFQGRVTITADESTNTANMELTSLKSEDTAVYYCARTLSSYQPNNDAFAIWGQGTMVTVSS VL: EIVLTQSPATLSLSPGERATLSCRASQSVSSYLAWYQQKPGQAPRLLIYDASNRATGIPARFSGSGSGTDFTLTISRLEPEDFAVYFCQQYGSSPQFGQGTRLEIK
**Result** 8.96

**Query** Note, next up: F10 CDR-H2 variant ISPIFGTA (germline CDR-H2 with Ser52 restored) scFv (scFv, V domains shown) VH: QVQLVQSGAEVKKPGSSVKVSCTSSEVTFSSFAISWVRQAPGQGLEWLGGISPIFGTANYAQKFQGRVTITADQSTRTAYMDLRSLRSEDTAVYYCARSPSYICSGGTCVFDHWGQGTLVTVSS VL: QPGLTQPPSVSKGLRQTATLTCTGNSNNVGNQGAAWLQQHQGHPPKLLSYRNNDRPSGISERFSASRSGNTASLTITGLQPEDEADYYCSTWDSSLSAVVFGGGTKLTVL
**Result** 8.92
